# experimental system: human sphingosine-1-phosphate receptor 1 (S1P1) (Homo sapiens, UniProt P21453)
# Sequence (P21453 whole entry): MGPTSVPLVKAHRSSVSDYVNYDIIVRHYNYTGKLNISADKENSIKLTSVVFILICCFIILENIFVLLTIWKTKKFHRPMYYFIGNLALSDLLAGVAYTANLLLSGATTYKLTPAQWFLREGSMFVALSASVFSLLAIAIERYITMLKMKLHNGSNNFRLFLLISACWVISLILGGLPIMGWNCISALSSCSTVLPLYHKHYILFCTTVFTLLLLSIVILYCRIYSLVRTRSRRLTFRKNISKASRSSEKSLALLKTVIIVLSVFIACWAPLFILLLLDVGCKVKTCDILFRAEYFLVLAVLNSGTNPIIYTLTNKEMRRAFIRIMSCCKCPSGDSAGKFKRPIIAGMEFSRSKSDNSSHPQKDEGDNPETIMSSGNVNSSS
# method: Inhibition of cAMP production (HTRF cAMP HiRange), S1P1 CHO-K1 cells
# Format: cell-based
# settings: CHO-K1; inhibition of cAMP production; efficacy normalized to maximum efficacy of fingolimod; read-out: hS1P1 CAMP SPAN
Answer each item with its documented Emax.

Hey, quick one: what's Emax for each of these?
1. Cc1nccnc1-c1nc(-c2ccc3c(c2)nnn3C(C)C)no1
2. Cc1ccc(-c2noc(-c3ccc4c(c3)nnn4C3CCCC3)n2)cc1
3. COc1ccc(-c2noc(-c3ccc4c(c3)nnn4CC(C)(C)O)n2)c(C)c1
4. CCC1(CC)CC(=O)c2cc(-c3nc(-c4ccc(S(=O)(=O)NC)cc4)no3)ccc2O1
5. CCC1(CC)CC(=O)c2cc(-c3nc(-c4ccc5c(c4)nnn5C(C)C)no3)ccc2O1
6. CC(C)n1nnc2cc(-c3noc(C4CCC4)n3)ccc21

1: < 75%; 2: < 75%; 3: > 75%; 4: > 75%; 5: > 75%; 6: < 75%

Could I get Emax for every one of these entries?
1. OCCCn1nnc2cc(-c3noc(-c4ccccc4Br)n3)ccc21
2. COc1ccccc1-c1noc(-c2ccc3[nH]ncc3c2)n1

["> 75%", "< 75%"]

// fetch human sphingosine-1-phosphate receptor 1 (S1P1) (Homo sapiens, UniProt P21453) Emax for `CC(C)n1nnc2cc(-c3noc(-c4cccc(F)c4)n3)ccc21` > 75%

---

# experimental system: UniProtKB P21453
# method: Inhibition of cAMP production (HTRF cAMP HiRange), S1P1 CHO-K1 cells
# Assay type: cell-based
# settings: inhibition of cAMP production; potency; read-out: hS1P1 CAMP pEC50 (converted)
What EC50 was measured for each of the following?

* CC1(C)CCC2(CC1)CC(=O)c1cc(-c3nc(-c4ccncc4)no3)ccc1O2 | < 316 nM
* CC(C)n1ncc2cc(-c3nc(-c4ccccc4O)no3)ccc21 | < 316 nM

For each listed entry, give its EC50.
1. CC(C)n1nnc2cc(-c3noc(-c4ccccc4F)n3)ccc21
2. FC(F)(F)c1cccc(-c2noc(-c3ccc4c(c3)nnn4C3CCCC3)n2)c1
3. COc1ccc(-c2nc(-c3ccc4c(c3)nnn4C3CCCC3)no2)cc1
4. Cc1cc(C)cc(Cc2noc(-c3ccc4c(c3)nnn4C(C)C)n2)c1

1: < 316 nM; 2: > 316 nM; 3: > 316 nM; 4: > 316 nM

---

# experimental system: human sphingosine-1-phosphate receptor 1 (S1P1) (Homo sapiens, UniProt P21453)
# method: Inhibition of cAMP production (HTRF cAMP HiRange), S1P1 CHO-K1 cells
# Assay type: cell-based
# settings: inhibition of cAMP production; potency; read-out: hS1P1 CAMP pEC50 (converted)
Can you tell me EC50 for the items I'm about to list?

- Cc1cnc(-c2noc(-c3ccc4c(c3)nnn4C3CCOCC3)n2)cn1: > 316 nM

Batch lookup, EC50 per entry.
1. CC(C)Nc1ccc(-c2nnc(-c3ccc4[nH]ncc4c3)o2)cc1C#N
2. Cc1ccccc1-c1nc(-c2ccc3c(c2)nnn3C2CCCC2)no1

["< 316 nM", "> 316 nM"]

---

# experimental system: sphingosine-1-phosphate receptor 5 (S1P5) (Homo sapiens)
# Sequence (Q9H228 whole entry): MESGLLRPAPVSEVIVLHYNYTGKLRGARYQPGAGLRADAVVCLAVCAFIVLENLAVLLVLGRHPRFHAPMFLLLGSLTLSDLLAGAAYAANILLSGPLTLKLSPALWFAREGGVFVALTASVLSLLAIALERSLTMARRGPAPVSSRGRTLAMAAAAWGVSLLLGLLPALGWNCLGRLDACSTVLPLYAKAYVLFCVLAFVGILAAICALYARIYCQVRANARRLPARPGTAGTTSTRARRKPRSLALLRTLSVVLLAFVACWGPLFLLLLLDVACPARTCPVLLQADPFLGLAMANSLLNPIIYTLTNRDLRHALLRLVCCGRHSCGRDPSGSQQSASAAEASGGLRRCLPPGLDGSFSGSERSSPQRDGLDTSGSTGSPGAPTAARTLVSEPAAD
# method: Selectivity: inhibition of cAMP production (HTRF), S1P5 CHO-K1 cells
# Format: cell-based
# settings: inhibition of cAMP production; read-out: hS1P5 cAMP pEC50 (converted)
Exercise: for every item that follows, state its recorded EC50.

* Cc1ccccc1-c1nc(-c2ccc3c(c2)nnn3C(C)C)no1 | > 10 µM
* Cc1ccncc1-c1noc(-c2ccc3c(c2)nnn3C2CCC2)n1 | > 10 µM
* COc1ccccc1-c1nc(-c2ccc3c(ccn3C(C)C)c2)no1 | > 10 µM
* CC(C)n1nnc2cc(-c3nc4c(o3)Cc3ccccc3-4)ccc21 | > 10 µM

Fill in EC50 for each of the 4 compounds listed.
1. C=CCNc1ccc(-c2nc(-c3ccc4sc(N)nc4c3)no2)cc1C#N
2. CCC1(CC)CC(=O)c2cc(-c3nc(-c4ccccc4Cl)no3)ccc2O1
3. CCC1(CC)CC(=O)c2cc(-c3nc(-c4ccc5[nH]ncc5c4)no3)ccc2O1
4. C=CCNc1ccc(-c2nc(-c3cn[nH]c3)no2)cc1C#N

1. > 10 µM
2. < 10 µM
3. > 10 µM
4. < 10 µM

For the record `COc1ccccc1-c1nc(-c2ccc3c(c2)nnn3C(C)C)no1` , what value of EC50 is listed for sphingosine-1-phosphate receptor 5 (S1P5) (Homo sapiens)? > 10 µM
